The reported measurements were obtained from patent EP4671247A1.

Tgt: NLRP3 inflammasome (Homo sapiens, UniProt Q96P20)
Construct: host or cells: THP1-Null cells (PMA-differentiated, LPS-primed, nigericin-stimulated)
Sequence (Q96P20 whole entry): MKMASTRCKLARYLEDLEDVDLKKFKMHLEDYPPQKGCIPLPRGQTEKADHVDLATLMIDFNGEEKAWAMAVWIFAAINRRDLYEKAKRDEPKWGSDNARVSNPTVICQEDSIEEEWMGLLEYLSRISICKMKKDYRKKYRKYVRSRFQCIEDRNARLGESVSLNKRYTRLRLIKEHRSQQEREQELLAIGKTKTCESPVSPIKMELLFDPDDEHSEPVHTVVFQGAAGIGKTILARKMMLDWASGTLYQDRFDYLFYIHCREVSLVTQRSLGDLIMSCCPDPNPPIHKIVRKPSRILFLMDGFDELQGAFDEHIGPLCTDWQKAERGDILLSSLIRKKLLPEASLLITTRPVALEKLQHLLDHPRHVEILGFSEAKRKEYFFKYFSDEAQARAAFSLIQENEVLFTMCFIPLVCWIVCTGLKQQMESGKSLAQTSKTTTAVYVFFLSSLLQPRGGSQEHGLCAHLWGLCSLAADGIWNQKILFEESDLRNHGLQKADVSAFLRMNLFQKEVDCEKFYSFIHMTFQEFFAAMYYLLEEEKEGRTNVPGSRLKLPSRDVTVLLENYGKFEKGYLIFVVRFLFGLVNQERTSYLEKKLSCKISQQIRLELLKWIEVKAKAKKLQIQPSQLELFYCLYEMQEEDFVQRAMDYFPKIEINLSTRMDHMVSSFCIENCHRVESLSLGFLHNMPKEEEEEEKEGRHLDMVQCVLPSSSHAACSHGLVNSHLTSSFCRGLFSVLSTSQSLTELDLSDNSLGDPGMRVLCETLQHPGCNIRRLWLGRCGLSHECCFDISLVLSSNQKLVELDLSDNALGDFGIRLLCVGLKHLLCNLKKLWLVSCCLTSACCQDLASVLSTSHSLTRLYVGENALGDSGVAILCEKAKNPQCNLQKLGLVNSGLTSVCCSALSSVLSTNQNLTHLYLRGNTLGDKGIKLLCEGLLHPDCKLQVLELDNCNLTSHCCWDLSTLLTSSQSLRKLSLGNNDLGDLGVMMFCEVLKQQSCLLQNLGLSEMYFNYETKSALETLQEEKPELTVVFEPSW
Protocol details: Evaluation of NLRP3 inflammasome inhibitory activity (inhibition of IL-1β production in LPS/Nigericin-stimulated THP1-Null cells, AlphaLISA)
Type: cell-based
Test conditions: IL-1β production in THP1-Null cells; PMA, 1 µg/mL Lipopolysaccharides 3 hours, Nigericin 7.5 µmol/L 1.5 hours; read-out: IC50
Procedure: The NLRP3 inflammasome inhibitory activity of test compounds were evaluated on the basis of the inhibitory activity of the IL-1β production in THP1-Null cells (Product Number: thp-null, InvivoGen). […] The amount of IL-1β in the culture supernatant was quantitated with AlphaLISA (registered trademark) Human IL-1β Detection Kit (Product Number: AL220C, Perkin Elmer). […]
# maps each entry to its pIC50
// pIC50: -log10(molar conc.)

// worked examples, pIC50 included
In [3]: df
Out[3]:
                                   compound                                       tgt  quantity_measured  observed_value
0  Cc1ccc(-n2cc3c(=O)[nH]c(C4CCCCO4)nc3n2)c(C)c1 (racemic)  NLRP3 inflammasome (Homo sapiens, UniProt Q96P20)              pIC50            6.37
1  Cc1cc(Br)cc(C)c1-n1cc2c(=O)[nH]c(C3CC(F)(F)CCO3)nc2n1 (racemic)  NLRP3 inflammasome (Homo sapiens, UniProt Q96P20)              pIC50            7.29
2  Cc1cc(OC(F)F)cc(C)c1-n1cc2c(=O)[nH]c(C3(F)CC3)nc2n1  NLRP3 inflammasome (Homo sapiens, UniProt Q96P20)              pIC50            7.24
3  Cc1cc(C2CC2)cc(C)c1-n1nc2nc(C3CC3)[nH]c(=O)c2c1CF  NLRP3 inflammasome (Homo sapiens, UniProt Q96P20)              pIC50            7.82
4  Cc1cc(C2CC2)cc(OC(F)F)c1-n1cc2c(=O)[nH]c(C3CC3)nc2n1  NLRP3 inflammasome (Homo sapiens, UniProt Q96P20)              pIC50            7.96

// sample Cc1ccc(-n2cc3c(=O)[nH]c(C(F)F)nc3n2)c(C)c1 , its pIC50 was 4.89

Value of measured pIC50 for the entry Cc1cc(C2CC2)cc(C)c1-n1cc2c(=O)[nH]c(C3CCOCCO3)nc2n1 (single isomer, unassigned) [Example 178] : 7.96

pIC50 reading for Cc1cc(C(C)(F)F)cc(C)c1-n1cc2c(=O)[nH]c([C@H]3C[C@@H]3F)nc2n1 (single isomer, unassigned) [Example 147] : 7.62

// Cc1cc(C2CC2)cc(C)c1-n1cc2c(=O)[nH]c(C34COC(C)(C3)C4)nc2n1 : pIC50 value = 7.40

Lookup result for Cc1cc(C2CC2)cc(C)c1-n1cc2c(=O)[nH]c(C3(F)CC3)nc2n1 ; measured pIC50: 7.64

Recorded result, Cc1cc(C2CC2)cc(C)c1-n1cc2c(=O)[nH]c(C3CCOCCO3)nc2n1 (racemic) [Example 163] , pIC50: 7.64

Summary for this compound, Cc1cc(C2CC2)cc(C)c1-n1cc2c(=O)[nH]c(C(=O)N(C)C)nc2n1 : pIC50 is 6.74

Note to self: pIC50 recorded for Cc1cc(C2CC2)cc(C)c1-n1cc2c(=O)[nH]c(CCF)nc2n1 was 7.62

Lookup result for CC(=O)c1c2c(=O)[nH]c(C3COC3)nc2nn1-c1c(C)cc(Br)cc1C ; measured pIC50: 7.24

For Cc1cc(Br)cc(C)c1-n1cc2c(=O)[nH]c(C3CC3C(=O)N(C)C)nc2n1 (racemic) the compound record lists pIC50 as 7.66

Entry Cc1cc(Br)cc(C)c1-n1nc2nc(C3CCOCC3)[nH]c(=O)c2c1C(F)F — recorded pIC50 = 7.80

Per the records, this compound ( Cc1cc(C(C)(F)F)cc(C)c1-n1cc2c(=O)[nH]c([C@@H](C)O)nc2n1 (single isomer, unassigned) ) has pIC50 equal to 7.60

Measured pIC50, Cc1cc(C2CC2)cc(C)c1-n1cc2c(=O)[nH]c(C3CC3F)nc2n1 (racemic) : 8.10

Form field pIC50, entry Cc1cc(Br)cc(C)c1-n1cc2c(=O)[nH]c(C3=CCOCC3)nc2n1 : 8.10

In plain terms, Cc1cc(C(C)(F)F)cc(C)c1-n1cc2c(=O)[nH]c([C@@H]3C[C@H]3F)nc2n1 (single isomer, unassigned) has a documented pIC50 of 7.82

pIC50 measured on Cc1nc2nn(-c3c(C)cc(C4CC4)cc3C)cc2c(=O)[nH]1 = 6.77

Record summary for Cc1cc(C(C)(F)F)cc(C)c1-n1cc2c(=O)[nH]c(C3(F)COC3)nc2n1 : reported pIC50 = 6.55

The compound listed as Cc1cc(Br)cc(C)c1-n1cc2c(=O)[nH]c(CC(O)C(F)(F)F)nc2n1 (racemic) has a reported pIC50 of 7.62
